MEASURED TARGET: Human plasma kallikrein (Homo sapiens, UniProt P03952)
Construct: yields a heavy chain (371 amino acids) and a light chain (248 amino acids); purchased Enzyme Research Laboratories
Sequence (P03952 391-638 limits assumed): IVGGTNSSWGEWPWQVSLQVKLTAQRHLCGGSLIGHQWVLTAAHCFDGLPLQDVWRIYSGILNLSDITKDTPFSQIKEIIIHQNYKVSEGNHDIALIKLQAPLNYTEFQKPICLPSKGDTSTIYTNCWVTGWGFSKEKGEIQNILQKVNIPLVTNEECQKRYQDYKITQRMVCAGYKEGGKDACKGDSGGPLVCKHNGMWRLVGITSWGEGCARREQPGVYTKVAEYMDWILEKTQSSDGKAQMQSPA
Sequence (P03952 20-390 partner limits assumed): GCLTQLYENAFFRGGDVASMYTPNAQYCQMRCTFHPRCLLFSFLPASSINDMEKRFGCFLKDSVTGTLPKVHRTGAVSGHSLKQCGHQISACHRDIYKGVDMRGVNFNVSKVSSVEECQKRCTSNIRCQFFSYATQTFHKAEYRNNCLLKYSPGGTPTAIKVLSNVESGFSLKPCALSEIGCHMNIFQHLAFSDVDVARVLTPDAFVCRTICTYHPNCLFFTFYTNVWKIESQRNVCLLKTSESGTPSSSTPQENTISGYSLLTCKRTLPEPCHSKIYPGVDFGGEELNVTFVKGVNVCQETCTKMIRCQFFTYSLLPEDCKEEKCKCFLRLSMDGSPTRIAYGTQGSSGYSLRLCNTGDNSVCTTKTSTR
TEST PROTOCOL: Kallikrein Assay
Assay type: biochemical
TEST PARAMETERS: Plasma Kallekrein IC50; Examples 20-28 table; read-out: PK IC50
Task for the reader: assign each of the following compounds its reported pIC50.
One number for each entry, as −log10 of the molar value.

Past entries and their recorded results:
[O-][n+]1cc(-c2c(-n3cnnn3)ccc(Cl)c2F)ccc1[C@H](Cc1ccccc1)c1nc2cc(F)ccc2[nH]1 = 6.77
[O-][n+]1cc(-c2c(-n3cnnn3)ccc(Cl)c2F)ccc1[C@@H](Cc1ccccc1)c1nc2cc(F)ccc2[nH]1 = 7.19
O=C(O)c1ccc2[nH]c(C(Cc3ccccc3)c3ccc(-c4cc(Cl)ccc4C(=O)O)c[n+]3[O-])nc2c1 (racemic) = 5.56

Consider the additional compound presented here.
**Query** Endpoint output: pIC50 of O=C(CC(c1nc2ccc(F)cc2[nH]1)c1ccc(-c2cc(Cl)ccc2-n2cnnn2)c[n+]1[O-])N1CCC1 (single isomer, unassigned) . Value?
**Result** 5.74

---

MEASURED TARGET: human Factor XIa (Homo sapiens, UniProt P03951)
Construct: purified human Factor XIa; purchased Sekisui Diagnostics
Sequence (P03951 388-625 limits assumed): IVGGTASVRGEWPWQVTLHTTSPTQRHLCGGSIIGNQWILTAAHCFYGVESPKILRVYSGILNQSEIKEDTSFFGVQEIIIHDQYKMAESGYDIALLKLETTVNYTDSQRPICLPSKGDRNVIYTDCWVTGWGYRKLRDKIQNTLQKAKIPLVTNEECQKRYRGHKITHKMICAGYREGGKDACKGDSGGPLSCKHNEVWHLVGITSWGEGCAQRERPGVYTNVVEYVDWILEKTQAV
Sequence (P03951 19-387 partner limits assumed): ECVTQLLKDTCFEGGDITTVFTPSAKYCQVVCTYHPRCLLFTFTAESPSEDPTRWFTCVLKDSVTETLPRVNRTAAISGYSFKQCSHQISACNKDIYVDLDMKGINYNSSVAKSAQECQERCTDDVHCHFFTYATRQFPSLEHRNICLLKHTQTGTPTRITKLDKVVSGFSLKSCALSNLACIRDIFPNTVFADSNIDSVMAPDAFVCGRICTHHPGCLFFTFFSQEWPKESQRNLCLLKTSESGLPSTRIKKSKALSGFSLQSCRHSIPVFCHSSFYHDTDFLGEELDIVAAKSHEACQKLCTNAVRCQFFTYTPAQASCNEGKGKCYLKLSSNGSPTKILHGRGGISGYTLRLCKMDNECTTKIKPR
TEST PROTOCOL: Factor XIa Assay
Format: biochemical
TEST PARAMETERS: Examples 1-19 table, read-out: F11a IC50
PROPERTY: IC50 (nM)
Answers are plain numbers, in nM.

O=C(O)c1ccc2[nH]c(C(Cc3ccccc3)c3ccc(-c4c(F)ccc(Cl)c4F)c[n+]3[O-])nc2c1 (stereo in doubt) [Example 2] = 46.2

For every item below, please supply its IC50.
1. O=C(O)c1ccc2[nH]c([C@@H](Cc3ccc(F)cc3)c3ccc(-c4c(F)ccc(Cl)c4F)c[n+]3[O-])nc2c1
2. [O-][n+]1cc(-c2cc(Cl)ccc2-n2cnnn2)ccc1C(Cc1ccccc1)c1nc2cc(F)ccc2[nH]1 (racemic) [Example 7]

**Result**
[146, 1.15]

---

MEASURED TARGET: human Factor XIa (Homo sapiens, UniProt P03951)
Construct: purified human Factor XIa; purchased Sekisui Diagnostics
TEST PROTOCOL: Factor XIa Assay
Assay type: biochemical
TEST PARAMETERS: Examples 1-19 table, read-out: F11a IC50
Procedure: The effectiveness of a compound of the present invention as an inhibitor of Coagulation Factor XIa can be determined using a relevant purified serine protease, and an appropriate synthetic substrate. The rate of hydrolysis of the chromogenic or fluorogenic substrate by the relevant serine protease was measured both in the absence and presence of compounds of the present invention. […] A decrease in the rate of fluorescence change in the presence of inhibitor is indicative of enzyme inhibition. […]
Mark Yes only when IC50 stays strictly below 200 nM. Values equal to the cut-off are No.

**Query** For N#Cc1ccc2[nH]c(C(Cc3ccccc3)c3ccc(-c4c(F)ccc(Cl)c4F)c[n+]3[O-])nc2c1 (racemic) , is the recorded IC50 below the cut-off of 200 nM?
**Result** No

**Query** Report whether reported IC50 is lower than 200 nM (strictly) for "[O-][n+]1cc(-c2cc(Cl)ccc2-n2cnnn2)ccc1[C@H](Cc1ccc(F)cc1)c1nc2cc(F)ccc2[nH]1"
**Result** Yes

**Query** Consider O=C(O)c1ccc2[nH]c(C(Cc3ccccc3)c3ccc(-c4c(F)ccc(Cl)c4F)c[n+]3[O-])nc2c1 (racemic) [Example 1] . Does its IC50 lie strictly below 200 nM?
**Result** Yes

**Query** is_below(IC50, 200 nM) for "O=C(O)c1ccc2[nH]c([C@H](Cc3ccc(F)cc3)c3ccc(-c4c(F)ccc(Cl)c4F)c[n+]3[O-])nc2c1" ?
**Result** Yes

**Query** Is 200 nM strictly greater than the molecule's reported IC50? molecule: [O-][n+]1cc(-c2c(F)ccc(Cl)c2F)ccc1C(Cc1ccccc1)c1nc2cc(F)ccc2[nH]1 (racemic)
**Result** No

**Query** Is it true that IC50 reported for "[O-][n+]1cc(-c2cc(Cl)ccc2-n2cnnn2)ccc1[C@@H](Cc1ccc(F)cc1)c1nc2cc(F)ccc2[nH]1" is less than 200 nM?
**Result** Yes

**Query** State whether 200 nM exceeds IC50 recorded for N#Cc1ccc2[nH]c(C(Cc3ccccc3)c3ccc(-c4cc(Cl)ccc4-n4cnnn4)c[n+]3[O-])nc2c1 (racemic) .
**Result** Yes

**Query** For [O-][n+]1cc(-c2cc(Cl)ccc2-n2cnnn2)ccc1C(Cc1ccccc1)c1nc2cc(F)ccc2[nH]1 (stereo in doubt) [Example 9] , is the recorded IC50 below the cut-off of 200 nM?
**Result** Yes
